target: CDK2/cycline E (Homo sapiens, UniProt P24941)
Construct: made in house; host or cells: Sf21 insect cells (baculovirus coinfection)
measurement_description: CDK2/cyclineE Flashplate test in 96-well format
Format: biochemical
condition_context: CDK2/cycline E complex, 1 μM ATP
Structures can show the parent of a compound that is named as a salt.
// NB: equality with 200 nM counts as criterion not met; only IC50 strictly below is criterion met

Ask: Please check: IC50 for CC(C)N(Cc1ccc(C(=O)Nc2n[nH]c3sc(C(=O)NN(C)c4ccccc4)cc23)cc1)C(C)C [Example 25, trifluoroacetate] , strictly under 200 nM or not?
Reply: criterion not met

Ask: Please check: IC50 for CN1CCCN(Cc2ccc(C(=O)Nc3n[nH]c4sc(C(=O)NN(C)c5ccccc5)cc34)cc2)CC1 [Example 12a] , strictly under 200 nM or not?
Reply: criterion met

Ask: Please check: IC50 for CCN(NC(=O)c1cc2c(NC(=O)c3ccc(N4CCN(C)CC4)cc3)n[nH]c2s1)c1ccccc1C [Example 39] , strictly under 200 nM or not?
Reply: criterion met

Ask: Please check: IC50 for CC1CN(Cc2ccc(C(=O)Nc3n[nH]c4sc(C(=O)NN(C)c5ccccc5)cc34)cc2)CCN1 (stereo not drawn) [Example 14a] , strictly under 200 nM or not?
Reply: criterion met

Ask: Please check: IC50 for CCN(NC(=O)c1cc2c(NC(=O)c3ccc(N4CCN(C)CC4)cc3)n[nH]c2s1)c1cccc(Br)c1 [Example 43] , strictly under 200 nM or not?
Reply: criterion met

Ask: Please check: IC50 for CN1CCN(c2ccc(C(=O)Nc3n[nH]c4sc(C(=O)NN(C)Cc5ccccc5)cc34)cc2)CC1 [Example 30] , strictly under 200 nM or not?
Reply: criterion not met

Ask: Please check: IC50 for CN1CCCN(c2ccc(C(=O)Nc3n[nH]c4sc(C(=O)NN(C)c5ccccc5)cc34)cc2)CC1 [Example 47] , strictly under 200 nM or not?
Reply: criterion not met

Ask: Please check: IC50 for CN1CCN(c2ccc(C(=O)Nc3n[nH]c4sc(C(=O)NN5CCCCC5)cc34)cc2)CC1 [Example 31] , strictly under 200 nM or not?
Reply: criterion not met

Ask: Please check: IC50 for CCN(NC(=O)c1cc2c(NC(=O)c3ccc(N4CCN(C)CC4)cc3)n[nH]c2s1)c1ccccc1 [Example 33] , strictly under 200 nM or not?
Reply: criterion met

Ask: Please check: IC50 for COc1ccc(C(=O)Nc2n[nH]c3sc(C(=O)NNC4CCCCC4)cc23)cc1 [Example 3] , strictly under 200 nM or not?
Reply: criterion not met

Ask: Please check: IC50 for CC(C)CN(NC(=O)c1cc2c(NC(=O)c3ccc(N4CCN(C)CC4)cc3)n[nH]c2s1)c1ccc(F)cc1 [Example 42] , strictly under 200 nM or not?
Reply: criterion not met

Ask: Please check: IC50 for CN(NC(=O)c1cc2c(NC(=O)c3ccc(CN4CCCCC4)cc3)n[nH]c2s1)c1ccccc1 [Example 17a] , strictly under 200 nM or not?
Reply: criterion met

Ask: Please check: IC50 for CN(NC(=O)c1cc2c(NC(=O)c3ccc(CN4CCCCC4)cc3)n[nH]c2s1)c1ccc(Cl)cc1 [Example 17b] , strictly under 200 nM or not?
Reply: criterion met

Ask: Please check: IC50 for COc1ccc(C(=O)Nc2n[nH]c3sc(C(=O)NNCc4ccccc4)cc23)cc1 [Example 26] , strictly under 200 nM or not?
Reply: criterion met

Ask: Please check: IC50 for CCN(CC)Cc1ccc(C(=O)Nc2n[nH]c3sc(C(=O)NN(C)c4ccccc4)cc23)cc1 [Example 15a, trifluoroacetate] , strictly under 200 nM or not?
Reply: criterion not met

Ask: Please check: IC50 for CN(NC(=O)c1cc2c(NC(=O)c3ccc(CN4CCCC4)cc3)n[nH]c2s1)c1ccccc1 [Example 18a] , strictly under 200 nM or not?
Reply: criterion met

Ask: Please check: IC50 for CN1CCN(c2ccc(C(=O)Nc3n[nH]c4sc(C(=O)NN(CC5CCC5)c5ccc(Cl)cc5)cc34)cc2)CC1 [Example 36] , strictly under 200 nM or not?
Reply: criterion not met

Ask: Please check: IC50 for CN(C)CCN(C)Cc1ccc(C(=O)Nc2n[nH]c3sc(C(=O)NN(C)c4ccccc4)cc23)cc1 [Example 20a] , strictly under 200 nM or not?
Reply: criterion not met

Ask: Please check: IC50 for CN(NC(=O)c1cc2c(NC(=O)c3cccc(CN4CCOCC4)c3)n[nH]c2s1)c1ccc(Cl)cc1 [Example 22b] , strictly under 200 nM or not?
Reply: criterion not met

Ask: Please check: IC50 for CCN(CC)CCNCc1ccc(C(=O)Nc2n[nH]c3sc(C(=O)NN(C)c4ccc(Cl)cc4)cc23)cc1 [Example 23b] , strictly under 200 nM or not?
Reply: criterion met

Ask: Please check: IC50 for COc1ccc(C(=O)Nc2n[nH]c3sc(C(=O)NNc4ccccc4F)cc23)cc1 [Example 6] , strictly under 200 nM or not?
Reply: criterion not met

Ask: Please check: IC50 for CN1CCN(c2ccc(C(=O)Nc3n[nH]c4sc(C(=O)N/N=C\c5ccccc5)cc34)cc2)CC1 [Example 45] , strictly under 200 nM or not?
Reply: criterion met

Ask: Please check: IC50 for COc1ccc(C(=O)Nc2n[nH]c3sc(C(=O)NNc4ccccc4)cc23)cc1 [Example 1] , strictly under 200 nM or not?
Reply: criterion met

Ask: Please check: IC50 for CCc1ccccc1NNC(=O)c1cc2c(NC(=O)c3ccc(OC)cc3)n[nH]c2s1 [Example 5] , strictly under 200 nM or not?
Reply: criterion not met

Ask: Please check: IC50 for CN1CCN(c2ccc(C(=O)Nc3n[nH]c4sc(C(=O)NN(Cc5ccccc5)c5ccccc5)cc34)cc2)CC1 [Example 34] , strictly under 200 nM or not?
Reply: criterion not met

Ask: Please check: IC50 for CN(C)CCN(C)Cc1ccc(C(=O)Nc2n[nH]c3sc(C(=O)NN(C)c4ccc(Cl)cc4)cc23)cc1 [Example 20b] , strictly under 200 nM or not?
Reply: criterion met

Ask: Please check: IC50 for COC[C@@H]1CCCN1NC(=O)c1cc2c(NC(=O)c3ccc(N4CCN(C)CC4)cc3)n[nH]c2s1 [Example 29] , strictly under 200 nM or not?
Reply: criterion not met

Ask: Please check: IC50 for CN(NC(=O)c1cc2c(NC(=O)c3cccc(CN4CCOCC4)c3)n[nH]c2s1)c1ccccc1 [Example 22a] , strictly under 200 nM or not?
Reply: criterion not met

Ask: Please check: IC50 for CN1CCN(Cc2cccc(C(=O)Nc3n[nH]c4sc(C(=O)NN(C)c5ccccc5)cc34)c2)CC1 [Example 16a] , strictly under 200 nM or not?
Reply: criterion not met

Ask: Please check: IC50 for CN(NC(=O)c1cc2c(NC(=O)c3ccc(CN4CCCC4)cc3)n[nH]c2s1)c1ccc(Cl)cc1 [Example 18b] , strictly under 200 nM or not?
Reply: criterion met

###

Could you please report measured IC50 for the items listed next?
target: Aurora1 (Homo sapiens, UniProt Q96GD4)
Construct: His tag (N)
Sequence (Q96GD4 whole entry, species assumed): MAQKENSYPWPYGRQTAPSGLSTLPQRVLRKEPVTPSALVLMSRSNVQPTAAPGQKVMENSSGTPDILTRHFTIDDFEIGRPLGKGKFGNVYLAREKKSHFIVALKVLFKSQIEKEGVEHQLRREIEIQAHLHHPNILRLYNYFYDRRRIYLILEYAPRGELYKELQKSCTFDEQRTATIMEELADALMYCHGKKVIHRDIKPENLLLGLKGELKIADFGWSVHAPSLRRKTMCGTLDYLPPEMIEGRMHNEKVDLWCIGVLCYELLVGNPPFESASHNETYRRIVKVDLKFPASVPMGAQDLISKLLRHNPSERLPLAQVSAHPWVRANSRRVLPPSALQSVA
Sequence (Q9NQS7 835-903 partner limits assumed, species assumed): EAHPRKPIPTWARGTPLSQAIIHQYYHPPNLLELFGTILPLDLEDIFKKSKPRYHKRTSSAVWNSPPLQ
measurement_description: Aurora1 enzymatic test, NuMA phosphorylation with [33P]ATP, Flashplate
condition_context: Aurora-B/INCENP-C3 recombinant complex, 1 μM ATP
Counter-ions that a name gives are not always drawn.
Please give a number only; it is taken to be in nM.

Ask: Jot down IC50 (Aurora1 (Homo sapiens, UniProt Q96GD4)) of CN(NC(=O)c1cc2c(NC(=O)c3ccc(OCCN4CCOCC4)cc3)n[nH]c2s1)c1ccccc1 .
Reply: 12

Ask: Jot down IC50 (Aurora1 (Homo sapiens, UniProt Q96GD4)) of COC[C@@H]1CCCN1NC(=O)c1cc2c(NC(=O)c3ccc(N4CCN(C)CC4)cc3)n[nH]c2s1 .
Reply: 28

Ask: Jot down IC50 (Aurora1 (Homo sapiens, UniProt Q96GD4)) of CC1CN(Cc2ccc(C(=O)Nc3n[nH]c4sc(C(=O)NN(C)c5ccc(Cl)cc5)cc34)cc2)CCN1 (stereo not drawn) [Example 14b] .
Reply: 148

Ask: Jot down IC50 (Aurora1 (Homo sapiens, UniProt Q96GD4)) of CN(NC(=O)c1cc2c(NC(=O)c3cccc(CN4CCOCC4)c3)n[nH]c2s1)c1ccc(Cl)cc1 [Example 22b] .
Reply: 956

Ask: Jot down IC50 (Aurora1 (Homo sapiens, UniProt Q96GD4)) of CC1CN(Cc2ccc(C(=O)Nc3n[nH]c4sc(C(=O)NN(C)c5ccc(Cl)cc5)cc34)cc2)CC(C)N1 (stereo not drawn) [Example 11b] .
Reply: 216

Ask: Jot down IC50 (Aurora1 (Homo sapiens, UniProt Q96GD4)) of CCN(NC(=O)c1cc2c(NC(=O)c3ccc(N4CCN(C)CC4)cc3)n[nH]c2s1)c1ccccc1 .
Reply: 13

Ask: Jot down IC50 (Aurora1 (Homo sapiens, UniProt Q96GD4)) of CN1CCN(Cc2cccc(C(=O)Nc3n[nH]c4sc(C(=O)NN(C)c5ccc(Cl)cc5)cc34)c2)CC1 [Example 16b] .
Reply: 936

Ask: Jot down IC50 (Aurora1 (Homo sapiens, UniProt Q96GD4)) of CN(NC(=O)c1cc2c(NC(=O)c3ccc(CN4CCCOCC4)cc3)n[nH]c2s1)c1ccccc1 [Example 21a] .
Reply: 55

Ask: Jot down IC50 (Aurora1 (Homo sapiens, UniProt Q96GD4)) of CN(NC(=O)c1cc2c(NC(=O)c3ccc(CN4CCCC4)cc3)n[nH]c2s1)c1ccccc1 [Example 18a] .
Reply: 122

Ask: Jot down IC50 (Aurora1 (Homo sapiens, UniProt Q96GD4)) of CCc1ccccc1NNC(=O)c1cc2c(NC(=O)c3ccc(OC)cc3)n[nH]c2s1 .
Reply: 33

Ask: Jot down IC50 (Aurora1 (Homo sapiens, UniProt Q96GD4)) of CCN(CC)Cc1ccc(C(=O)Nc2n[nH]c3sc(C(=O)NN(C)c4ccc(Cl)cc4)cc23)cc1 [Example 15b] .
Reply: 329

Ask: Jot down IC50 (Aurora1 (Homo sapiens, UniProt Q96GD4)) of CC(C)N(Cc1ccc(C(=O)Nc2n[nH]c3sc(C(=O)NN(C)c4ccccc4)cc23)cc1)C(C)C [Example 25, trifluoroacetate] .
Reply: 249

Ask: Jot down IC50 (Aurora1 (Homo sapiens, UniProt Q96GD4)) of CN(NC(=O)c1cc2c(NC(=O)c3ccc(CN4CCCC4)cc3)n[nH]c2s1)c1ccc(Cl)cc1 [Example 18b] .
Reply: 287

Ask: Jot down IC50 (Aurora1 (Homo sapiens, UniProt Q96GD4)) of CN(NC(=O)c1cc2c(NC(=O)c3ccc(Br)cc3)n[nH]c2s1)c1ccccc1 .
Reply: 131

Ask: Jot down IC50 (Aurora1 (Homo sapiens, UniProt Q96GD4)) of CC1CN(Cc2ccc(C(=O)Nc3n[nH]c4sc(C(=O)NN(C)c5ccccc5)cc34)cc2)CC(C)N1 (stereo not drawn) [Example 11a] .
Reply: 178
